The origin of these recorded values is patent US20250027068.

# SYSTEM_UNDER_TEST: pooled human IgG
We use 700 ng/µL as the dividing line for Enzyme Activity Endpoint Assay (purified): Fab′2: on or above the line is yes (1), below is no (0).

Is it the case that PRT-61 (protein) MANQEIRYSEVTPYHVTSVWTKGVTPPANFTQGEDVFHAPYVANQGWYDINKTFNGKDDLLCGAATAGNMLHWWFDQNKEYIKRYLEEHPEKQKINFNGEQMFDVKEAIDTKNHQLDSKLFEYFKEKAFPYLSTKHLGVFPDHVLDMFINGYRLSLTNHGPTPVKEGSKDPRGGIFDAVFTRGDQSKLLTSRHDFKEKNLKEISDLIKKELTEGKALGLSHTYANVRINHVINLWGADFDSNGNLKAIYVTDSDSNASVGMKKYFVGVNSAGKVAISAKEIKEDNIGAQVLGLFTLSTGQDSWNQTN has Enzyme Activity Endpoint Assay (purified): Fab′2 reaching or exceeding 700 ng/µL?
no (0)

Please tell me: is the protein PRT-629 (protein) MQITSVWTKGVTPLTPEQFRYNNEDVIHAPYLAHQGWYDITKAFDGKDNLLCGAATAGNMLHWWFDQNKEEIEAYLKKYPEKQKIIFNNQELFDLKAAIDTKDSQTNSQLFNYFRDKAFPNLSARQLGVMPDLVLDMFINGYYLNVFKTQSTDVNRPYQDKDKRGGIFDAVFTRGDQTTLLTARHDLKNKGLNDISTIIKQELTEGRALALSHTYANVSISHVINLWGADFNAEGNLEAIYVTDSDANASIGMKKYFVGINAHGHVAISAKKIEGENIGAQVLGLFTLSSGKEIWQKLSLEHHHHHH at or over 700 ng/µL in terms of Enzyme Activity Endpoint Assay (purified): Fab′2?
no (0)

For this protein, is measured Enzyme Activity Endpoint Assay (purified): Fab′2 700 ng/µL or higher? PRT-73 (protein) MANQEIRYSEVTPYHVTSVWTKGVTPPANFTQGEDVFHAPYVANQGWYDITKTFNGKDDLLCGAATAGNMLHWWFDQNKEKIEAYLKKHPEKQKIMFGDQELLDVRKVINTKDDQTNSELFNYFRDKAFPGLSARRLGVMPDLVLDMFINGYYLNVTKTQTTDVNRTYQEKDRRGGIFDAVFTRGDQSKLLTSRHDFKEKNLKEISDLIKKELTEGKALGLSHTYANVRINHVINLWGADFDSNGNLKAIYVTDSDSNASIGMKKYFVGVNSAGKVAISAKEIKEDNIGAQVLGLFTLSTGQDSWNQTN
no (0)

Given the entry PRT-56 (protein) MANQEIRYSEVTPYHVTSVWTKGVTPPANFTQGEDVFHAPYVANQGWYDINKTFNGKDDLLCGAATAGNMLHWWFDQNKEYIDRYLEEHPEKQKINFNGEQMFDVKEAIDTKNHQLDSKLFEYFKEKAFPYLSTKHLGVFPDLVLDMFINGYRLSLTNHGPTPVKEGSKDPRGGFFDAVFTRGDQSKLLTSRHDFKEKNLKEISDLIKKELTEGKALGLSHTYANVRINHVINLWGADFDSNGNLKAIYVTDSDSNASVGMKKYFVGVNSAGKVAISAKEIKEDNIGAQVLGLFTLSTGQDSWNQTN , answer whether its Enzyme Activity Endpoint Assay (purified): Fab′2 meets or surpasses 700 ng/µL.
no (0)

Determine whether measured Enzyme Activity Endpoint Assay (purified): Fab′2 meets or exceeds 700 ng/µL for PRT-565 (protein) MANQEIRYSEATPSHITSVWTKGVTPPTQFIQNEDVLHAPYIANQGWYDITKTFNGKDDLLCGAATAGNMLHWWFDQNKEQIENYLKKHPEKQKINFNGEQMFDVKEAIDTKDSQTDSALFSYFKDKAFPYLSTKHLGVFPDHVIDMFINGYRLSLTNHGPTPVKRQTKDPRGGIFDAVFTRGDQSKLLTSRHDFKEKTLNEISQLIKQELTEGKALGLSHTYANVRINHVINLWGADFNAEGNLEAIYVTDSDSNASIGMKKYYVGVNSAGKVAISAKEIEGDNIGAQVLGLFTLSTGQDIWQQTNLEHHHHHH
yes (1)

Test whether the protein PRT-620 (protein) MQITSVWTKGVTPLTPEQFRYNNEDVIHAPYLAHQGWYDITKAFDGKDNLLCGAATAGNMLHWWFDQNKTEIEAYLSKHPEKQKIIFNNQELFDLKAAIDTKDSQTNSQLFNYFRDKAFPNLSARQLGVMPDLVLDMFINGYYLNVFKTQSTDVNRPYQDKDKRGGIFDAVFTRGDQTTLLTARHDLKNKTLKEISDIIKQELTEGRALALSHTYANVSISHVINLWGADFNAEGNLEAIYVTDSDANASIGMKKYFVGINAHGHVAISAKKIEGENIGAQVLGLFTLSSGKDIWQKLSLEHHHHHH records Enzyme Activity Endpoint Assay (purified): Fab′2 of 700 ng/µL or higher.
yes (1)

Tell me whether Enzyme Activity Endpoint Assay (purified): Fab′2 is at least 700 ng/µL here: PRT-634 (protein) MQITSVWTKGVTPLTPEQFRYNNYDVIHAPYKPNQGWYDITKAFDGKDNLLCGAATAGNMLHWWFDQNKTEIEAYLSKHPEKQKIIFNNQELFDLKAAIDTKDSQTNSQLFNYFRDKAFPNLSARQLGVMPDLVLDMFINGYYLNVFKTQSTDVNRPYQDKDKRGGIFDAVFTRGDQTTLLTARHDLKNKGLNDISTIIKQELTEGKALALSHTYANVSISHVINLWGADFNAEGNLEAIYVTDSDANASIGMKKYFVGINAHGHVAISAKKIEGENIGAQVLGLFTLSSGKDIWQKLSLEHHHHHH
yes (1)
